Reference source for all entries: patent US20110200585A1

TARGET OR SYSTEM: human CD127 ECD (human) (UniProt P16871)
PROTOCOL TEXT: SPR, BIAcore 3000; antibody captured on anti-human IgG (Fc), CD127 ECD 16-512 nM as analyte, 1:1 Langmuir fit
Overview of reported koff across a group of binders:
READOUT TYPE: koff (s⁻¹)

>>> quantitative_readout("6A3 H4-61_8L27 (antibody, V domains shown) VH: QVQLQESGPGLVKPSETLSLTCTVSGYSVTTDYAWNWIRQPPGKGLEWIGYIFYSGSTTYTPSLKSRITISRDTSKNQFSLKLSSVTAADTAVYYCARGGYDVNYFDYWGQGTTVTVSS VL: DIQMLQSPSSLSASVGDRVTITCLASQTIGYWLAWYQQKPGKAPKLLIYAATRLADGVPSRFSGSGSGTMFTLTISSLQPEDFATYYCQQFFSYPWTFGGGTKVEIK")
0.00037
>>> quantitative_readout("6A3 H4-61_9L27 (antibody, V domains shown) VH: QVQLQESGPGLVKPSETLSLTCTVSGYSVTTDYAWNWIRQPPGKGLEWMGYIFYSGSTTYTPSLKSRITISRDTSKNQFSLKLSSVTAADTAVYYCARGGYDVNYFDYWGQGTTVTVSS VL: DIQMLQSPSSLSASVGDRVTITCLASQTIGYWLAWYQQKPGKAPKLLIYAATRLADGVPSRFSGSGSGTMFTLTISSLQPEDFATYYCQQFFSYPWTFGGGTKVEIK")
0.00122
>>> quantitative_readout("6A3 H4-61_6L27 (antibody, V domains shown) VH: QVQLQESGPGLVKPSETLSLTCTVSGYSVSTDYAWNWIRQPPGKGLEWIGYIFYSGSTTYTPSLKSRVTISRDTSKNQFSLKLSSVTAADTAVYYCARGGYDVNYFDYWGQGTTVTVSS VL: DIQMLQSPSSLSASVGDRVTITCLASQTIGYWLAWYQQKPGKAPKLLIYAATRLADGVPSRFSGSGSGTMFTLTISSLQPEDFATYYCQQFFSYPWTFGGGTKVEIK")
0.000299
